Assay: Stability on storage (related substances and decomposition products)
Format: physicochemical
Settings: t = 18 months (at 2-8° C.); unit assumed
measured.metric: Decomposition Products D.P. I (%)

C/C(=C\C(=O)OCCCCCCCCC(=O)[O-])C[C@@H]1OC[C@H](C[C@@H]2O[C@H]2[C@@H](C)[C@H](C)O)[C@@H](O)[C@H]1O.C/C(=C\C(=O)OCCCCCCCCC(=O)[O-])C[C@@H]1OC[C@H](C[C@@H]2O[C@H]2[C@@H](C)[C@H](C)O)[C@@H](O)[C@H]1O.[Ca+2] [amorphous calcium pseudomonate, calcium pseudomonate]	0.62

---

Test: Stability on storage (related substances and decomposition products)
Type: physicochemical
Details: t = 0; unit assumed
measured.metric: Related Substances (from process) P.A. E (%)

C/C(=C\C(=O)OCCCCCCCCC(=O)[O-])C[C@@H]1OC[C@H](C[C@@H]2O[C@H]2[C@@H](C)[C@H](C)O)[C@@H](O)[C@H]1O.C/C(=C\C(=O)OCCCCCCCCC(=O)[O-])C[C@@H]1OC[C@H](C[C@@H]2O[C@H]2[C@@H](C)[C@H](C)O)[C@@H](O)[C@H]1O.[Ca+2] [amorphous calcium pseudomonate, calcium pseudomonate]	0.1
